System: Murine Raw 264.7 cells
Assay type: cell-based
Ends that are not written are not given here.
ENDPOINT_NAME: pEC50
Scale: pEC50 equals -log10([C]), with [C] in mol/L.

Problem: Fill in pEC50 for record HAEGTFISDYSIAMDKLAARDFINWLIQTKITD-NH2 (C-terminus assumed) [Co-7]
Solution: 8.83

* * *

System: MC3T3-E1 subclone 4 cells
Assay type: cell-based, murine
Ends that are not written are not given here.
ENDPOINT_NAME: EC50 (pM)
Write down the numeric answer in pM and omit the unit.

Problem: Fill in EC50 for record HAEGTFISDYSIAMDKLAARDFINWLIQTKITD-NH2 (C-terminus assumed) [Co-7]
Solution: 8.6
